- Target entity: Glycogen phosphorylase, muscle form (Oryctolagus cuniculus) (UniProt P00489)
- Sequence (P00489 whole entry, looked up): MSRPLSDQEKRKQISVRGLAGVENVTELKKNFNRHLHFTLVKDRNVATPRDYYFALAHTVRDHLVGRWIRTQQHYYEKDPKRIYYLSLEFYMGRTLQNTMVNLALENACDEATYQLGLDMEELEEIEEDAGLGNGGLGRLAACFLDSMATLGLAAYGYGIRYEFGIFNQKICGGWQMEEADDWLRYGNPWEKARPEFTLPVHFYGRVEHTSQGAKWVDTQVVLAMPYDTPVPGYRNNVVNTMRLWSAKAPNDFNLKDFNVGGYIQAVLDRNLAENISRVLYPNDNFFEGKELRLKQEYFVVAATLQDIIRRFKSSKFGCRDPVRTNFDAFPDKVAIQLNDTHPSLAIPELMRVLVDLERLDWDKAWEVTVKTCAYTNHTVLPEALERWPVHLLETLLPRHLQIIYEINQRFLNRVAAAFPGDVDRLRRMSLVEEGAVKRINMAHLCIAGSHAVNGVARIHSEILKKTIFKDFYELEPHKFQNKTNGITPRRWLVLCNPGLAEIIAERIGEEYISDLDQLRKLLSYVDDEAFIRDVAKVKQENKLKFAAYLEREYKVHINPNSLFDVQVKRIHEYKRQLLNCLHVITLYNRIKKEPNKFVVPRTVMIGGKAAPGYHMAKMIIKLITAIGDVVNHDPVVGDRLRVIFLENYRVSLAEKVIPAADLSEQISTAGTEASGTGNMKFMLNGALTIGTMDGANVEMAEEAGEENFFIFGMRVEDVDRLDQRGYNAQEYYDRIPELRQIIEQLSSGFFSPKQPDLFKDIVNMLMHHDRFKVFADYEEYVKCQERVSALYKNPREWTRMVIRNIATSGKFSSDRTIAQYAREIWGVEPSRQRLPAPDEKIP
Reported property: IC50

Report IC50 from Glycogen phosphorylase, muscle form (Oryctolagus cuniculus) (UniProt P00489) testing of `O=C(O)c1cccc(C(=O)Nc2ccccc2Oc2ccc(C(=O)O)c(C(=O)O)c2)c1`
> 200 µM

----------
- Target entity: Glycogen phosphorylase, liver form (Sus scrofa)
- Assay: In vitro inhibition of pig liver Glycogen phosphorylase A.
Please respond with rule met when measured IC50 is strictly beneath 200 nM, and with rule not met in all other cases.

In plain terms, does `O=C(Nc1ccc(Oc2ccc(C(=O)O)c(C(=O)O)c2)c(NC(=O)c2cccc([N+](=O)[O-])c2)c1)c1ccccc1` come in under 200 nM for IC50?
rule met

Hi there! Is IC50 for `CC(=O)Nc1ccc(Oc2ccc(C(=O)O)c(C(=O)O)c2)c(NC(=O)c2cccc([N+](=O)[O-])c2)c1` below 200 nM, do you know?
rule met

Is IC50 strictly under 200 nM for the entry `O=C(Nc1ccccc1Oc1ccc(C(=O)O)c(C(=O)O)c1)c1ccccc1` ?
rule not met

A record lists `O=C(Nc1cc(Br)ccc1Oc1ccc(C(=O)O)c(C(=O)O)c1)c1cccc([N+](=O)[O-])c1` . Is its IC50 below 200 nM?
rule not met

Threshold test, IC50 < 200 nM: `O=C(Nc1cc(F)ccc1Oc1ccc(C(=O)O)c(C(=O)O)c1)c1cccc([N+](=O)[O-])c1`
rule not met

IC50 under 200 nM? Item: `O=C(Nc1cc(C(F)(F)F)ccc1Oc1ccc(C(=O)O)c(C(=O)O)c1)c1cccc([N+](=O)[O-])c1`
rule not met

In plain terms, does `Cc1ccc(Oc2ccc(C(=O)O)c(C(=O)O)c2)c(NC(=O)c2cccc([N+](=O)[O-])c2)c1` come in under 200 nM for IC50?
rule not met

Say whether its IC50 is strictly beneath 200 nM. Entry: `Cc1cc(Oc2ccc(C(=O)O)c(C(=O)O)c2)c(NC(=O)c2cccc([N+](=O)[O-])c2)cc1NC(=O)c1cccc([N+](=O)[O-])c1`
rule not met

Threshold test, IC50 < 200 nM: `O=C(Nc1ccccc1Oc1ccc(C(=O)O)c(C(=O)O)c1)c1ccc(Cl)c(Cl)c1`
rule not met

Check if IC50 falls below 200 nM for `O=C(Nc1ccccc1Oc1ccc(C(=O)O)c(C(=O)O)c1)c1ccc(Cl)cc1` .
rule not met

Input `O=C(O)c1cccc(C(=O)Nc2ccccc2Oc2ccc(C(=O)O)c(C(=O)O)c2)c1` ; condition: IC50 strictly below 200 nM. Does it hold?
rule not met

Please let me know if `Cc1ccc(C(=O)Nc2ccccc2Oc2ccc(C(=O)O)c(C(=O)O)c2)cc1` shows IC50 below 200 nM.
rule not met

Does the reported IC50 of the following compound sit strictly below 200 nM? `N#Cc1ccc(Oc2ccc(C(=O)O)c(C(=O)O)c2)c(NC(=O)c2cccc([N+](=O)[O-])c2)c1`
rule not met
